System: 786-0 renal
Assay: NCI tumour cell line growth inhibition, 48 h
TGI overview
METRIC: TGI (µM)

INSERT INTO measurements (compound, metric, measure_unit, relation_operator, reported_value) VALUES
  ('COc1cccc(C2c3cc4c(cc3OC(N3CCCC3)C2C)OCO4)c1O (centres undefined)', 'TGI', 'µM', '>', 100),
  ('Cc1ccc2nc(-c3ccc(N4C(=O)C(Cl)C4c4ccc(Cl)cc4)cc3)sc2c1 (centres undefined)', 'TGI', 'µM', '=', 56.9),
  ('Cc1cc(C)c(Cn2cnc3c(Cl)ncnc32)c(C)c1CCl', 'TGI', 'µM', '>', 100),
  ('O=C1CCCCCCCCCCC1CN1CCCCC1 (centres undefined)', 'TGI', 'µM', '>', 100),
  ('CCOc1cccc2ccc[n+](CC)c12', 'TGI', 'µM', '>', 100),
  ('CCOP(=O)(OCC)C(C#N)Cc1ccco1 (centres undefined)', 'TGI', 'µM', '>', 10),
  ('CCN(CC)CCCC(C)N=C(C1=C(C(=NC(C)CCCN(CC)CC)c2cccc(OC)c2)C(=O)NC1=O)c1cccc(OC)c1 (centres undefined)', 'TGI', 'µM', '=', 7.86),
  ('CN(C)c1nc(=Nc2cccc(Cl)c2)ss1', 'TGI', 'µM', '=', 25.6),
  ('CC1C2(C)OC(=N)C(C#N)(C(c3cccc([N+](=O)[O-])c3)O2)C1(C#N)C#N (centres undefined)', 'TGI', 'µM', '=', 45.2),
  ('COc1ccc(C(=O)c2cc3c(N)c(C(=O)Nc4ccc(C)cc4)sc3nc2C)cc1', 'TGI', 'µM', '=', 19.1),
  ('O=C(OCc1ncc(-c2ccc(C(F)(F)F)cc2)c(NC2CCCCCC2)n1)c1c(F)c(F)c(F)c(F)c1F', 'TGI', 'µM', '=', 27.2),
  ('Nc1ccn(C2OC(COC(=O)C34CC5CC(CC(C5)C3)C4)C(O)C2O)c(=O)n1 (centres undefined)', 'TGI', 'µM', '>', 100),
  ('O=C(Nc1cccc(O)c1)C(=O)C(C(=O)c1ccc(Cl)c(Cl)c1)C1OC(=O)c2ccccc21 (centres undefined)', 'TGI', 'µM', '=', 26.4),
  ('COc1ccc2nc3cc([N+](=O)[O-])ccc3c(NCCCN(C)C)c2c1', 'TGI', 'µM', '=', 1.28),
  ('COC(C)(C)C1(O)CCC(C)CC1=O (centres undefined)', 'TGI', 'µM', '>', 100),
  ('N#CC1=C(N)NC(N2CCOCC2)=NC12Nc1ccccc1N2', 'TGI', 'µM', '=', 40),
  ('CN(C)CCCn1nc(N)c2nc3cc(Cl)ccc3nc21', 'TGI', 'µM', '>', 100),
  ('C=C(Nc1ccc([N+](=O)[O-])cc1[N+](=O)[O-])c1c/c(=N\NC(N)=S)c2ccccc2o1', 'TGI', 'µM', '>', 100),
  ('CN1C(=O)C(=O)c2cc3c(c4c2c1cc1ccccc14)OCO3', 'TGI', 'µM', '>', 100),
  ('O=C(O)/C(Cc1ccc([N+](=O)[O-])cc1)=N\O', 'TGI', 'µM', '>', 100),
  ('O=c1[nH]c2cc(Cl)ccc2nc1/C(=N\O)C(O)c1ccc([N+](=O)[O-])cc1 (centres undefined)', 'TGI', 'µM', '>', 100),
  ('COc1cccc(/C=C/C(=O)c2ccc(Cl)cc2Cl)c1', 'TGI', 'µM', '=', 40.7),
  ('Cc1cc(=O)oc2c(C)c(OCCCOc3ccc4c(C)cc(=O)oc4c3C)ccc12', 'TGI', 'µM', '>', 100),
  ('COC(=O)C1[C@H](c2cc(OC)c(OC)c(OC)c2)OC(=O)C1(C(=O)OC)C(=O)c1ccc2c(c1)OCO2 (some centres undefined)', 'TGI', 'µM', '>', 100),
  ('COc1ccc(OC)c(-c2cc(-c3ccc(Cl)cc3)nn2-c2ccc(S(=O)(=O)NC(C)=O)cc2)c1', 'TGI', 'µM', '=', 12.1),
  ('CC(=O)N=C1N(/C=C2\C(=O)Oc3ccccc3C2=O)C(=O)/C(=C/c2ccc(Cl)cc2Cl)N1C', 'TGI', 'µM', '>', 100),
  ('CCn1c(-c2cc3ccccc3cc2O)nn(C(=O)c2c(Cl)cccc2Cl)c1=S', 'TGI', 'µM', '=', 27.4),
  ('N#C/C(=C1\SC(N=Nc2ccccc2)C(=O)N1c1ccccc1)c1nc2ccccc2[nH]1 (centres undefined)', 'TGI', 'µM', '>', 100),
  ('COc1ccc(-c2c3c(n(C4OC(COC(C)=O)C(OC(C)=O)C(OC(C)=O)C4OC(C)=O)c(=S)c2C#N)CC(C)(C)CC3=O)cc1 (centres undefined)', 'TGI', 'µM', '>', 100),
  ('O=C(Cc1ccccc1)Nn1c(-c2ccccc2)nc2ccccc2c1=O', 'TGI', 'µM', '>', 100),
  ('C=CCO[C@]1(CC=C)C(=O)C(=O)OC1C1COC(C)(C)O1 (some centres undefined)', 'TGI', 'µM', '>', 100),
  ('CCc1cccc(CC)c1NC(=O)C1=C(C)NC(C)=C(C(=O)Nc2c(CC)cccc2CC)C1c1ccc([N+](=O)[O-])cc1', 'TGI', 'µM', '=', 29.2),
  ('CCCCCCCCCCCCCCCCCC(=O)OCC(COC(=O)CCCN)OC(=O)CCCN (centres undefined)', 'TGI', 'µM', '=', 34.3),
  ('NC1=CN2c3ccccc3N(CC(=O)O)C2C=C1 (centres undefined)', 'TGI', 'µM', '>', 100);

---

Tested on: SF-268 CNS
Test: NCI tumour cell line growth inhibition, 48 h
TGI overview
METRIC: TGI

INSERT INTO results (molecule, metric, reported_value) VALUES
  ('CCOC(=N)CC(=O)c1ccccc1', 'TGI', '> 100 µM'),
  ('O=C1Nc2ccc(Cl)cc2/C1=C\c1c(Cl)nc2sccn12', 'TGI', '> 100 µM'),
  ('O=C(O)CC1NCc2cc3ccccc3nc21 (stereo not drawn)', 'TGI', '> 100 µM'),
  ('Cc1ccc(NC(=O)CSc2nc(=O)[nH]c3nc[nH]c23)cc1', 'TGI', '> 100 µM'),
  ('O=C1/C(=C\c2ccccn2)c2ccccc2N1c1c(Cl)cccc1Cl', 'TGI', '9.54 µM'),
  ('COc1c(O)cc2c(c1O)C(=O)/C(=C/c1ccc(O)cc1)CO2', 'TGI', '> 100 µM'),
  ('NC(=O)c1cccc(Nc2nccc(Nc3cccc4[nH]ncc34)n2)c1', 'TGI', '> 25 µM'),
  ('COc1ccc2c(c1)CC[C@H](O)/C2=C/c1cc(OC)c(OC)c(OC)c1', 'TGI', '> 100 µM');

---

Tested on: OVCAR-5 ovarian
Assay: NCI tumour cell line growth inhibition, 48 h
TGI overview
METRIC: TGI (µM)

INSERT INTO measurements (molecule, target, relation_operator, reported_value) VALUES
  ('COc1cc2c(cc1OC)C1(COc3cc(O)c(O)c(O)c3C1=O)C2 (centres undefined)', 'OVCAR-5 ovarian', '>', 50),
  ('O=C(OCc1ncc(-c2ccc(C(F)(F)F)cc2)c(NC2CCCCCC2)n1)c1c(F)c(F)c(F)c(F)c1F', 'OVCAR-5 ovarian', '=', 36.5),
  ('CCNC(=O)c1c(O)c2ccccc2[nH]c1=O', 'OVCAR-5 ovarian', '>', 100),
  ('O=C1/C(=C\c2ccccn2)c2ccccc2N1c1c(Cl)cccc1Cl', 'OVCAR-5 ovarian', '=', 4.81);

---

Test system: MDA-MB-435
Experiment: NCI tumour cell line growth inhibition, 48 h
TGI overview
METRIC: TGI

INSERT INTO measurements (molecule, target, reported_value) VALUES
  ('CCOC(=O)C(NC(=O)c1ccccc1)(N1CCOCC1)C(F)(F)F (configuration not stated)', 'MDA-MB-435', '> 100 µM'),
  ('NC(=O)c1cccc(Nc2nccc(Nc3cccc4[nH]ncc34)n2)c1', 'MDA-MB-435', '> 25 µM'),
  ('CCN(CC)CCCC(C)N=C(C1=C(C(=NC(C)CCCN(CC)CC)c2cccc(OC)c2)C(=O)NC1=O)c1cccc(OC)c1 (configuration not stated)', 'MDA-MB-435', '1.68 µM'),
  ('C=CCO[C@]1(CC=C)C(=O)C(=O)OC1C1COC(C)(C)O1 (some centres not stated)', 'MDA-MB-435', '> 100 µM'),
  ('CCCCCCCCCCCCCCCCCC(=O)OCC(COC(=O)CCCN)OC(=O)CCCN (configuration not stated)', 'MDA-MB-435', '33.2 µM'),
  ('N#Cc1c(-c2ccccc2)c(N=Nc2ccc(Cl)cc2)c(=O)n2c1[nH]c1ccccc12', 'MDA-MB-435', '> 100 µM'),
  ('CN(/N=C/c1ccnc2ccccc12)c1ccc(Cl)cc1[N+](=O)[O-]', 'MDA-MB-435', '> 100 µM');

Source of measurements: PubChem BioAssay (NCI)
